test system: Plasma; experiment: Drug level in clostridium difficile infected patient plasma at 200 […], po every 12 hrs for 10 days by RP-HPLC/MS; format: ADME, organism-based; set-up: route oral; settings: human, in vivo
readout type: Activity (mg/mL)
Report as a plain number; the unit mg/mL is understood.

Problem: Plasma / Activity / `CCc1c(Cl)c(O)c(Cl)c(O)c1C(=O)O[C@H]1[C@H](O)[C@H](OC)[C@H](OC/C2=C\C=C\C[C@H](O)/C(C)=C/[C@H](CC)[C@@H](O[C@@H]3OC(C)(C)[C@@H](OC(=O)C(C)C)[C@H](O)[C@@H]3O)/C(C)=C/C(C)=C/C[C@@H]([C@@H](C)O)OC2=O)O[C@@H]1C` : value?
Solution: 9.37e-05

---

assay: Drug level in clostridium difficile infected patient plasma at 400 […], po every 12 hrs for 10 days by RP-HPLC/MS; assay type: ADME, organism-based; design: route oral; conditions: human, read-out: Activity
readout type: concentration at 10 days (ng/mL)
Write it as a number; the unit ng/mL goes unstated.

Problem: Report concentration at 10 days for CCc1c(Cl)c(O)c(Cl)c(O)c1C(=O)O[C@H]1[C@H](O)[C@H](OC)[C@H](OC/C2=C\C=C\C[C@H](O)/C(C)=C/[C@H](CC)[C@@H](O[C@@H]3OC(C)(C)[C@@H](OC(=O)C(C)C)[C@H](O)[C@@H]3O)/C(C)=C/C(C)=C/C[C@@H]([C@@H](C)O)OC2=O)O[C@@H]1C [FIDAXOMICIN] please.
Solution: 84.9
